# System: isolated rat aorta
# assay-name: In vitro vasorelaxation of epinephrine-contracted rat aortic rings (CCRC)
# Assay type: cell-based
# assay-context: vasorelaxation, rat aortic rings contracted with 1 μM epinephrine; given as negative log value; read-out: EC50 (converted)

{"columns": ["molecule", "EC50 (nM)"],
 "data": [
  ["Cc1nc(NC(=O)[C@@H](C)c2ccc(CC(C)C)cc2)sc1CCO[N+](=O)[O-] (stereo in doubt)", 50.1],
  ["Cc1nc(-c2ccccc2)sc1CCO[N+](=O)[O-]", 20],
  ["Cc1nc(NC(=O)c2cccnc2)sc1CCO[N+](=O)[O-]", 39.8],
  ["Cc1nc(-c2cccnc2)sc1CCO[N+](=O)[O-]", 39.8]
]}
